- ASSAY METHOD TEXT: in vivo
- CONDITION DESCRIPTION: albino, guinea pig, ip, 12.5 mg/kg

COMPOUND: CO[C@H]1/C=C/O[C@@]2(C)Oc3c(C)c(O)c4c(O)c(c(/C=N/N5CCN(C)CC5)c(O)c4c3C2=O)NC(=O)/C(C)=C\C=C\[C@H](C)[C@H](O)[C@@H](C)[C@@H](O)[C@@H](C)[C@H](OC(C)=O)[C@@H]1C [Rifampin, rifampin, reference compound]
AUC / ng·h/mL: 4560

----------
// reported MIC E. coli per item
- Test system: E. coli
- ASSAY METHOD TEXT: MIC values, E. coli (Tables 1-4)
- Type: cell-based
REPORTED ENDPOINT: MIC E. coli (µg/mL)

COMPOUND: CO[C@H]1/C=C/O[C@@]2(C)Oc3c(C)c(O)c4c(=O)c(c5oc6cc(N7CCCC7)c(F)cc6nc-5c4c3C2=O)NC(=O)/C(C)=C\C=C\[C@H](C)[C@H](O)[C@@H](C)[C@@H](O)[C@@H](C)[C@H](O)[C@@H]1C
LIMIT QUALIFIER: =
TEST VALUE: 8
//
COMPOUND: COC1C=COC2(C)Oc3c(C)c(O)c4c(=O)c(c5oc6cc(N7CC8CCCNC8C7)cc(O)c6nc-5c4c3C2=O)NC(=O)C(C)=CC=CC(C)C(O)C(C)C(O)C(C)C(OC(C)=O)C1C (stereo not shown) [Compound 143]
LIMIT QUALIFIER: =
TEST VALUE: 8
//
COMPOUND: CO[C@H]1/C=C/O[C@@]2(C)Oc3c(C)c(O)c4c(=O)c(c5oc6cc(N7CCC(NC(=O)N8CCC(NC(=O)SC)CC8)CC7)cc(O)c6nc-5c4c3C2=O)NC(=O)/C(C)=C\C=C\[C@H](C)[C@H](O)[C@@H](C)[C@@H](O)[C@@H](C)[C@H](OC(C)=O)[C@@H]1C
LIMIT QUALIFIER: >
TEST VALUE: 8
//
COMPOUND: CCOc1c(N2CCN(CCOC)CC2)cc(N2CCN(CCOC)CC2)c2nc3c4c5c6c(C)c(O)c4c(=O)c(c-3oc12)NC(=O)/C(C)=C\C=C\[C@H](C)[C@H](O)[C@@H](C)[C@@H](O)[C@@H](C)[C@H](O)[C@H](C)[C@@H](OC)/C=C/O[C@@](C)(O6)C5=O
LIMIT QUALIFIER: >
TEST VALUE: 8
